The reported measurements were obtained from paper PMC6010122.

molecular target: Bcr-Abl^WT (Homo sapiens, UniProt P00519)
Sequence (P00519 27-1130): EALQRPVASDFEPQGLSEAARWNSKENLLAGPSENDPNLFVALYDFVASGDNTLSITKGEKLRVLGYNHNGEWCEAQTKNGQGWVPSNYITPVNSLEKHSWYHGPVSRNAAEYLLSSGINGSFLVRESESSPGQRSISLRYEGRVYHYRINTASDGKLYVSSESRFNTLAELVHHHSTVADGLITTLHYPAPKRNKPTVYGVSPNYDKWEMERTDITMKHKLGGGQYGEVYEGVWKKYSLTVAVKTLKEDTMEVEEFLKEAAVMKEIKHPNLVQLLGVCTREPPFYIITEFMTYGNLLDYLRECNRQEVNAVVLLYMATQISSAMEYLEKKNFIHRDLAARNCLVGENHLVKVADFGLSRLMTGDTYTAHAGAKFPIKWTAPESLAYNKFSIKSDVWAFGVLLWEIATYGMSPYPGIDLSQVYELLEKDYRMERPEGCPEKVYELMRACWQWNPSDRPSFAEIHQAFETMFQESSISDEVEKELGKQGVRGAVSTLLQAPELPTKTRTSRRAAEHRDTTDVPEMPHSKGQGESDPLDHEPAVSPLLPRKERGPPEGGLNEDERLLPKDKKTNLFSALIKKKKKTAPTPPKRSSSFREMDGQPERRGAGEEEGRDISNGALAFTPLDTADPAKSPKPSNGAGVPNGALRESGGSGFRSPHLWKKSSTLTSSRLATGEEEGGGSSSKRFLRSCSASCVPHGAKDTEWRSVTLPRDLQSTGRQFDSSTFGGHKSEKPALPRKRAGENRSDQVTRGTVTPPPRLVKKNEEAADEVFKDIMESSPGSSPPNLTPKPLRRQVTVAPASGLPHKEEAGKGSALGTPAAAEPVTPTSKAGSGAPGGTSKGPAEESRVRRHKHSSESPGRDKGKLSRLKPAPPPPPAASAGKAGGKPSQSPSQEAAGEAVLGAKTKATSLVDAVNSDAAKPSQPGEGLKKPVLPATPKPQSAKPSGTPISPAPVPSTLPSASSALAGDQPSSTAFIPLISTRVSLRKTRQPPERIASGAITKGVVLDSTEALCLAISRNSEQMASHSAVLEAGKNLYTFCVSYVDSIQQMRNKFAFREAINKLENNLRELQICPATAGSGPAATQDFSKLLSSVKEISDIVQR
readoutKind: pIC50
Scale for pIC50: -log10 of concentration given in mol/L; no unit attached.

Given the entry Cc1ccc(C(=O)Nc2ccc(CN3CCN(C)CC3)c(C(F)(F)F)c2)cc1C#Cc1cnc2ccnn2c1 [GZD856] , what pIC50 was observed with Bcr-Abl^WT (Homo sapiens, UniProt P00519)? 7.70

----------
test system: Ba/F3^WT cells; experiment: Cellular antiproliferation assay (CCK-8), Ba/F3 expressing Bcr-Abl^WT; type: cell-based, murine; settings: Mus musculus, BaF3; CCK-8, 72 h; read-out: Antiproliferation IC50, Ba/F3^WT
readoutKind: IC50 (nM)
Lab book: enter the figure in nM, no units written.

I would be grateful if you could share the reported IC50 for Cc1ccc(C(=O)Nc2ccc(CN3CCN(C)CC3)c(C(F)(F)F)c2)cc1C#Cc1cnc2ccnn2c1 . 0.64
